From: ChEMBL document CHEMBL1137687

Test system: Human immunodeficiency virus 1
Experiment: Antiviral activity against wild type HIV1 3B assessed as protection as protection against virus-induced cytopathogenicity after 4 days by MTT assay
Format: functional
Details: Human immunodeficiency virus 1, 3B, 96 h
pEC50: −log10 of the molar value.
parameter measured: pEC50

Example cases with answers are listed next.
{"columns": ["smi", "pEC50"],
 "data": [
  ["Cc1ccc2sn(/N=C/c3cccc(F)c3)c(=O)c2c1", "< 4.52"],
  ["O=c1c2ccccc2sn1/N=C/c1ccc([N+](=O)[O-])cc1[N+](=O)[O-]", "< 4.00"],
  ["Cc1ccc2sn(/N=C/C=C/c3ccccc3)c(=O)c2c1", "< 4.72"],
  ["Cc1ccc2sn(/N=C/c3ccc(F)cc3)c(=O)c2c1", "< 4.82"],
  ["CCCCCCCCCCC/C=N/n1sc2ccc(C)cc2c1=O", "< 4.72"]
]}

Asked: Return reported pEC50. Input molecule: COc1ccc(/C=N/n2sc3ccc(C)cc3c2=O)cc1
Given back: < 4.26

Asked: Return reported pEC50. Input molecule: Cc1ccc2sn(/N=C/c3cccc(O)c3)c(=O)c2c1
Given back: < 4.80

* * *

System: Human immunodeficiency virus 1
Assay: Antiviral activity against wild type HIV1 3B assessed as protection as protection against virus-induced cytopathogenicity after 4 days by MTT assay
Format: functional
Settings: Human immunodeficiency virus 1, 3B, 96 h
Entries and their measured pEC50 follow.
Bear in mind: pEC50 is minus log10 of a mol/L concentration; give just that figure.

{"columns": ["smi", "pEC50"],
 "data": [
  ["Cc1ccc2sn(/N=C/c3ccc(Cl)cc3)c(=O)c2c1", 4.62]
]}

Asked: Give pEC50 only, for Cc1ccc2sn(/N=C/c3ccccc3Cl)c(=O)c2c1 , using Human immunodeficiency virus 1 data.
Given back: 4.09
